Experiment Description: Property forecast index (PFI = ChromLogD7.4 + aromatic rings)
Format: physicochemical
Readout Name: PFI

Worked examples follow.
{"columns": ["Molecule", "PFI"],
 "data": [
  ["COc1ccc(N2C(=O)c3[nH]nc(CC(C)C)c3C2C2CCCC2)cc1 (centres unmarked) [Compound 53]", 8.1],
  ["COc1ccc(N2C(=O)c3[nH]nc(CC(C)C)c3C2c2ccc(C(F)(F)F)cc2)cc1 (centres unmarked) [Compound 49]", 9.3],
  ["COc1ccc(N2C(=O)c3[nH]nc(CC(C)C)c3C2c2ccc(F)cc2C)cc1 (centres unmarked) [Compound 64]", 8.8],
  ["CC(C)Cc1n[nH]c2c1C(c1ccc(F)cc1)N(C1CCOCC1)C2=O (centres unmarked) [Compound 38]", 6.5],
  ["CC(C)Cc1n[nH]c2c1C(c1ccccc1Cl)N(c1ccc(N(C)C)cc1)C2=O (centres unmarked) [Compound 78]", 9.4]
]}

a. C=C(C)CCCc1n[nH]c2c1C(c1ccc(F)cc1)N(c1ccc(OC)cc1)C2=O (centres unmarked) [Compound 14]
b. COc1ccc(N2C(=O)c3[nH]nc(CC(C)C)c3C2c2ccc(C(=O)O)cc2)cc1 (centres unmarked) [Compound 50]
Which item exceeds the other in PFI, a or b ? To answer, give the label that identifies your chosen option.
a

Ref: patent US20230381142A1
